B1: tRNA (parent)
chain: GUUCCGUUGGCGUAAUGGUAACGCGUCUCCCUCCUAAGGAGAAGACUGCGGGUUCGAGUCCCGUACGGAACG

variants of: B1; assay: yeast fitness relative to wild type (ratio to wild type); higher = fitter; tRNA-Arg(CCU), competitive growth, 37 C, YPD
Fewer inactive variants are shown than the library holds.
readoutType: yeast fitness

>>> df
                variantidentifier  relationsymbol  experimentalvalue
 0            A20C C24G C27A G44A               ≤                0.5
 1        C5U C11G A15U G56C C61G               ≤                0.5
 2                 G12A G41A G51C               ≤                0.5
 3                  C5G A42C C60A               ≤                0.5
 4                      A65G G68U               =              0.809
 5            C11G C27U C33G G52A               ≤                0.5
 6  A20G C24U C33U A43C C55A U59C               =              0.539
 7                 A15G C24G U26A               =              0.656
 8                      C61U A69U               =               1.02
 9   C5G G10C U35G G50A C55U A69C               =              0.607
10             U3C A40G C46A A69C               =              0.706
11             C5G C11U C34A U47A               =              0.528
12                 C34G A37C G56A               =              0.527
13            A21G C29G G58C A70C               ≤                0.5
14                 U16A A37C C55U               ≤                0.5
15                      G41C G51C               =               0.52
16                 A20C U28G A69C               =              0.714
17                  U7A C46A C66A               ≤                0.5
18       U16A C33U A45G C49A U53A               ≤                0.5
19       C11A C29G C60U G67A A69U               ≤                0.5
20         G6A U8A C22G U47A A70C               ≤                0.5
21                      C11G G39A               =               0.63
